Value source: patent US10562878B2

target: DA Transporter (DAT) sites in mouse brain (Mus musculus (Mouse), UniProt Q61327); assay: Ex vivo [3H] WIN 35428 binding to DAT sites in mouse brain after oral dosing; details: mouse; mice, 30 mg/kg PO, 60 min after treatment
The reader will find reported receptor occupancy at 30 mg/kg values listed item by item below.

{"MOLECULE": "CNC(C)C1(c2ccc3ccccc3c2)CCCCC1 (single isomer, unassigned) [58 E1]", "receptor occupancy at 30 mg/kg / %": 24}
{"MOLECULE": "CN(C)C[C@]1(c2ccc(Cl)c(Cl)c2)CCCC[C@H]1O (relative stereo) [153 E2]", "receptor occupancy at 30 mg/kg / %": 22}
{"MOLECULE": "CNCC1(c2ccc(Cl)c(Cl)c2)CCC(C)(O)CC1 (stereo not shown)", "receptor occupancy at 30 mg/kg / %": 31}
{"MOLECULE": "CC(N(C)C)C1(c2ccc3ccccc3c2)CCCCC1 (single isomer, unassigned) [56 E1]", "receptor occupancy at 30 mg/kg / %": 67}

----------
target: 5-HT Transporter (SERT) sites in mouse brain (Mus musculus (Mouse)); experiment: Ex vivo [3H] citalopram binding to SERT sites in mouse brain after oral dosing; conditions: mice, 30 mg/kg PO, 60 min after treatment
REPORTED_ENDPOINT: SERT Mean Specific Binding ± S.E.M. (dpm)

{"COMPOUND": "CNCC1(c2ccc(Cl)c(Cl)c2)CCC(C)(O)CC1 (stereo not shown) [Compound 276]", "TEST_VALUE": 1558}
{"COMPOUND": "CC(N(C)C)C1(c2ccc3ccccc3c2)CCCCC1 (single isomer, unassigned) [56 E1]", "TEST_VALUE": 151}
{"COMPOUND": "CN(C)C[C@]1(c2ccc3ccccc3c2)CC[C@](C)(O)CC1 [Compound 225]", "TEST_VALUE": 414}
{"COMPOUND": "CN(C)CC1(c2ccc(Cl)c(Cl)c2)CCC(C)(O)CC1 (stereo not shown) [Compound 277]", "TEST_VALUE": 1384}
{"COMPOUND": "CNC(C)C1(c2ccc3ccccc3c2)CCCCC1 (single isomer, unassigned) [58 E1]", "TEST_VALUE": 469}
{"COMPOUND": "CN(C)C[C@]1(c2ccc3ccccc3c2)CCCC[C@H]1O (relative stereo) [164 E1]", "TEST_VALUE": 271}
{"COMPOUND": "CN(C)C[C@]1(c2ccc(Cl)c(Cl)c2)CCCC[C@H]1O (relative stereo) [153 E2]", "TEST_VALUE": 1359}

----------
biological target: Norepinephrine Transporter (NET) sites in mouse brain (Mus musculus (Mouse), UniProt O55192); experiment: in vivo; details: po, read-out: NET % Transporter Occupancy
Where a name gives a salt, the structure may show the parent alone.
List of receptor occupancy at 3 mg/kg values.

{"COMPOUND": "CNCC1(c2ccc(Cl)c(Cl)c2)CCC(C)(O)CC1 (stereo not drawn)", "UNIT_DESCRIPTOR": "%", "receptor occupancy at 3 mg/kg": -6}
{"COMPOUND": "CN(C)C[C@]1(c2ccc(Cl)c(Cl)c2)CCCC[C@H]1O (relative stereo) [153 E2]", "UNIT_DESCRIPTOR": "%", "receptor occupancy at 3 mg/kg": 10}
{"COMPOUND": "CN(C)CC1(c2ccc(Cl)c(Cl)c2)CCC(C)(O)CC1 (stereo not drawn)", "UNIT_DESCRIPTOR": "%", "receptor occupancy at 3 mg/kg": 18}
{"COMPOUND": "CN(C)C[C@]1(c2ccc3ccccc3c2)CCCC[C@H]1O (relative stereo) [164 E1]", "UNIT_DESCRIPTOR": "%", "receptor occupancy at 3 mg/kg": -1}
{"COMPOUND": "CN[C@H](C)C1(c2ccc(Cl)c(Cl)c2)CCCCC1 (stereo in doubt) [48 E1, hydrochloride]", "UNIT_DESCRIPTOR": "%", "receptor occupancy at 3 mg/kg": 21}
{"COMPOUND": "CC(N(C)C)C1(c2ccc3ccccc3c2)CCCCC1 (single isomer, unassigned) [56 E1]", "UNIT_DESCRIPTOR": "%", "receptor occupancy at 3 mg/kg": 52}

----------
biological target: 5-HT Transporter (SERT) sites in mouse brain (Mus musculus (Mouse)); experiment: Ex vivo [3H] citalopram binding to SERT sites in mouse brain after oral dosing; conditions: mice, 3 mg/kg PO, 60 min after treatment
# SERT Mean Specific Binding ± S.E.M. per entry

{"COMPOUND": "CC(N(C)C)C1(c2ccc3ccccc3c2)CCCCC1 (single isomer, unassigned) [56 E1]", "UNIT_DESCRIPTOR": "dpm", "SERT Mean Specific Binding ± S.E.M.": 1346}
{"COMPOUND": "CN(C)C[C@]1(c2ccc(Cl)c(Cl)c2)CCCC[C@H]1O (relative stereo) [153 E2]", "UNIT_DESCRIPTOR": "dpm", "SERT Mean Specific Binding ± S.E.M.": 2968}
{"COMPOUND": "CNC(C)C1(c2ccc3ccccc3c2)CCCCC1 (single isomer, unassigned) [58 E1]", "UNIT_DESCRIPTOR": "dpm", "SERT Mean Specific Binding ± S.E.M.": 3021}
{"COMPOUND": "CN(C)C[C@]1(c2ccc3ccccc3c2)CCCC[C@H]1O (relative stereo) [164 E1]", "UNIT_DESCRIPTOR": "dpm", "SERT Mean Specific Binding ± S.E.M.": 2273}
{"COMPOUND": "CN(C)C[C@]1(c2ccc3ccccc3c2)CC[C@](C)(O)CC1", "UNIT_DESCRIPTOR": "dpm", "SERT Mean Specific Binding ± S.E.M.": 2118}
{"COMPOUND": "CN(C)CC1(c2ccc(Cl)c(Cl)c2)CCC(C)(O)CC1 (stereo not shown)", "UNIT_DESCRIPTOR": "dpm", "SERT Mean Specific Binding ± S.E.M.": 1491}
{"COMPOUND": "CNCC1(c2ccc(Cl)c(Cl)c2)CCC(C)(O)CC1 (stereo not shown)", "UNIT_DESCRIPTOR": "dpm", "SERT Mean Specific Binding ± S.E.M.": 3685}

----------
target: Norepinephrine Transporter (NET) sites in mouse brain (Mus musculus (Mouse), UniProt O55192); settings: mice, 1 mg/kg PO, 60 min after treatment
Where a name gives a salt, the structure may show the parent alone.
Each item that follows carries a reported NET Mean Specific Binding ± S.E.M..

{"MOLECULE": "CN(C)CC1(c2ccc(Cl)c(Cl)c2)CCC(C)(O)CC1 (stereo not shown) [Compound 277]", "NET Mean Specific Binding ± S.E.M.": "950 ± 46 dpm"}
{"MOLECULE": "CN(C)C[C@]1(c2ccc(Cl)c(Cl)c2)CCCC[C@H]1O (relative stereo) [153 E2]", "NET Mean Specific Binding ± S.E.M.": "1804 ± 79 dpm"}
{"MOLECULE": "CN(C)C[C@]1(c2ccc3ccccc3c2)CC[C@](C)(O)CC1 [Compound 225]", "NET Mean Specific Binding ± S.E.M.": "1170 ± 68 dpm"}
{"MOLECULE": "CNCC1(c2ccc(Cl)c(Cl)c2)CCC(C)(O)CC1 (stereo not shown) [Compound 276]", "NET Mean Specific Binding ± S.E.M.": "1602 ± 51 dpm"}
{"MOLECULE": "CC(N(C)C)C1(c2ccc3ccccc3c2)CCCCC1 (single isomer, unassigned) [56 E1]", "NET Mean Specific Binding ± S.E.M.": "616 ± 50 dpm"}
{"MOLECULE": "CN[C@H](C)C1(c2ccc(Cl)c(Cl)c2)CCCCC1 (stereo in doubt) [48 E1, hydrochloride]", "NET Mean Specific Binding ± S.E.M.": "2111 ± 119 dpm"}
{"MOLECULE": "CN(C)C[C@]1(c2ccc3ccccc3c2)CCCC[C@H]1O (relative stereo) [164 E1]", "NET Mean Specific Binding ± S.E.M.": "1122 ± 58 dpm"}

----------
target: Norepinephrine Transporter (NET) sites in mouse brain (Mus musculus (Mouse)); experiment: in vivo; details: po, read-out: NET % Transporter Occupancy
Structures can show the parent of a compound that is named as a salt.
REPORTED_ENDPOINT: receptor occupancy at 1 mg/kg (%)

{"COMPOUND": "CN(C)CC1(c2ccc(Cl)c(Cl)c2)CCC(C)(O)CC1 (stereo not drawn) [Compound 277]", "REPORTED_ENDPOINT": "receptor occupancy at 1 mg/kg", "TEST_VALUE": 6}
{"COMPOUND": "CN[C@H](C)C1(c2ccc(Cl)c(Cl)c2)CCCCC1 (stereo in doubt) [48 E1, hydrochloride]", "REPORTED_ENDPOINT": "receptor occupancy at 1 mg/kg", "TEST_VALUE": 12}
{"COMPOUND": "CN(C)C[C@]1(c2ccc(Cl)c(Cl)c2)CCCC[C@H]1O (relative stereo) [153 E2]", "REPORTED_ENDPOINT": "receptor occupancy at 1 mg/kg", "TEST_VALUE": 6}
{"COMPOUND": "CC(N(C)C)C1(c2ccc3ccccc3c2)CCCCC1 (single isomer, unassigned) [56 E1]", "REPORTED_ENDPOINT": "receptor occupancy at 1 mg/kg", "TEST_VALUE": 20}
{"COMPOUND": "CNCC1(c2ccc(Cl)c(Cl)c2)CCC(C)(O)CC1 (stereo not drawn) [Compound 276]", "REPORTED_ENDPOINT": "receptor occupancy at 1 mg/kg", "TEST_VALUE": -4}
{"COMPOUND": "CN(C)C[C@]1(c2ccc3ccccc3c2)CCCC[C@H]1O (relative stereo) [164 E1]", "REPORTED_ENDPOINT": "receptor occupancy at 1 mg/kg", "TEST_VALUE": -8}
